target: DRB1*1501 (Homo sapiens, UniProt P01903+P01911); assay: biochemical; assay type: binding
metric name: IC50 (nM)
Give bare numbers, in nM.

Asked: # return recorded IC50 for entry CC(C)C[C@H](NC(=O)[C@H](CCC(N)=O)NC(=O)[C@H](CCCCN)NC(=O)[C@@H](NC(=O)[C@H](CC(C)C)NC(=O)[C@H](CCC(N)=O)NC(=O)[C@@H](NC(=O)[C@H](C)NC(=O)[C@H](CO)NC(=O)[C@@H](NC(=O)[C@@H](NC(=O)[C@H](CC(=O)O)NC(=O)[C@@H](N)CC(=O)O)[C@@H](C)O)C(C)C)[C@@H](C)O)C(C)C)C(=O)N[C@@H](CCC(N)=O)C(=O)N[C@@H](Cc1c[nH]cn1)C(=O)O [Peptide 89.0162]
Given back: 601

###

molecular target: A*6802 (Homo sapiens, UniProt P04439, A269V/D140Y/D185E/E176V/E277Q/E87N/F33Y/G231S/I121R/I166T/I218V/L180W/L300P/L318F/N151K/P208A/P217A/Q86R/R138H/R169H/S129P/T345S/V36M); experiment: biochemical; format: binding
No end group written: not given here.
Task for the reader: assign each of the following sequences its reported IC50.
Numbers only, in µM.

Sample answers from the record:
Asked: Determine from records and report IC50 for TTAKLTIESV [Peptide 9013.0125]
Given back: 0.053

Asked: Give reported IC50 value for QLHTQELFI [Peptide 9013.0079]
Given back: 19.1

Read the next record carefully.
Asked: Fill in reported IC50 for this entry: SLYTHLQCL [Peptide 1578.20]
Given back: 8.47

###

target: DR1 (DRB1*0101) (Homo sapiens, UniProt P01903+P01911, A100R/D57E/F55L/F60I/F76Y/I96L/L162R/M171V/P40L/Q125E/R42F/V115G/Y59C); assay: biochemical; assay type: binding; conditions: read-out: DRB1*0101
No end group written: not given here.
metric name: IC50 (nM)
Answers are plain numbers, in nM.

Asked: For the substance 820.02 (YARRQTTLKAAA; also: non-natural residue (15A)) [Peptide 820.02] , give its reported IC50.
Given back: 1.6

Quick batch: IC50 for everything below.
1. 782.03 (YARSQTTLKAKT; also: non-natural residue (15)) [Peptide 782.03]
2. 730.12 (Ac-AAAKATAAAAAA; also: non-natural residue (10)) [Peptide 730.12]

Given back:
1. 1.5
2. 5000

###

biological target: A*3002 (Homo sapiens, UniProt P04439, D101N/D140H/D185E/E176R/F33S/G80R/H175R/K168Q/Q94H/R138E/R41S/V100E); assay: biochemical; assay type: binding
Sequence (P04439 whole entry, looked up, the tested form may be a part, stated change not applied): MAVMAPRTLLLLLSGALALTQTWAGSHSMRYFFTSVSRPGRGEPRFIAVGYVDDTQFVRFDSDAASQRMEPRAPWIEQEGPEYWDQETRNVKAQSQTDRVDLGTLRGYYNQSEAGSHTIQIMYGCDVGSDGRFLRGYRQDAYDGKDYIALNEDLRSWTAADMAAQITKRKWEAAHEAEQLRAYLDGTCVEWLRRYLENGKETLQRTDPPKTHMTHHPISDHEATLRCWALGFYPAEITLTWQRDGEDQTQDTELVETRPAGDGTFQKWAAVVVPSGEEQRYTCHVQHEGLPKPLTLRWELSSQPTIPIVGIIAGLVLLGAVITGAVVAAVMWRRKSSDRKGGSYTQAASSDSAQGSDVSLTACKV
No end group written: not given here.
metric name: pIC50
One number for each entry, as −log10 of the molar value.

Below are some sequences; for each one, tell me its pIC50.
1. SSNTKANILY [Peptide 1580.08]
2. VWDIVYIEY [Peptide 9018.0040]
3. MSMSQWIKY [Peptide 1580.05]
4. SIDWRLRRY [Peptide 9018.0020]
5. NTPPLVKLWY [Peptide 9015.0170]
6. QTDYYGLYY [Peptide 1593.06]
7. DTADQLIHLY [Peptide 9018.0021]

Given back:
1. 7.48
2. 6.33
3. 8.74
4. 7.57
5. 5.03
6. 6.17
7. 7.89

Count: 5. Required value per item: pIC50.
1. VTTIVYIEY [Peptide 9018.0041]
2. SSSKVSQNY [Peptide 9015.0011]
3. WFDITKWLWY [Peptide 9015.0160]
4. NTLVKHHMY [Peptide 9018.0009]
5. RFALNPGLL [Peptide 1605.01]

Given back:
7.04
7.49
5.47
7.16
7.01

For every item below, please supply its pIC50.
1. LTDQLIHLY [Peptide 9018.0026]
2. YTPGPGTRY [Peptide 9015.0027]
3. VTFDPIPIHY [Peptide 9015.0153]
4. LTDQLIHMYY [Peptide 9018.0029]
5. ITDDSDIAY [Peptide 1580.14]
6. VSIEWRQRRY [Peptide 9015.0182]

Given back:
1: 8.59; 2: 5.04; 3: 6.42; 4: 6.71; 5: 5.50; 6: 7.19

// input: 3 sequences below; output: pIC50 for each
1. GTDCNGWFY [Peptide 1593.01]
2. SSDAALYWY [Peptide 1593.08]
3. ISWTYIDDY [Peptide 86.0135]

Given back:
1. 6.48
2. 6.10
3. 8.03

Give one value of pIC50 per listed sequence.
1. NTDKSLVKY [Peptide 9018.0008]
2. DLDDQLIHLY [Peptide 9018.0022]
3. ETPGIRYQY [Peptide 9015.0017]
4. SSNLQGKLY [Peptide 86.0139]
5. NSDVKHHMY [Peptide 9018.0010]
6. LTDDSDIAY [Peptide 1580.11]

Given back:
5.52
8.57
5.64
7.21
7.15
5.26

Please state pIC50 for every sequence in the list that follows.
1. HMARELHPEY [Peptide 9015.0176]
2. SIDWRQRRY [Peptide 9018.0018]
3. VTRRAKGWFY [Peptide 9018.0013]
4. KSLVKHHMY [Peptide 9015.0034]
5. NSNTKATLLY [Peptide 1580.16]
6. LSDMVQWAY [Peptide 1593.03]
7. SFEPIPIHY [Peptide 9015.0001]

Given back:
1: 7.48; 2: 8.46; 3: 8.48; 4: 8.11; 5: 6.33; 6: 6.79; 7: 6.72

Each sequence below has a recorded value; state its pIC50.
1. LTDQLIHMHY [Peptide 9018.0032]
2. LYDQLIHLY [Peptide 9018.0028]
3. LSDLQDSGY [Peptide 1580.15]
4. LFDQLIHMYY [Peptide 9018.0030]
5. GLDDQLIHLY [Peptide 9018.0024]
6. LFDQLIHLY [Peptide 9018.0027]
7. VSIEWRLRRY [Peptide 9015.0181]
8. QTRVLAIERY [Peptide 9015.0156]

Given back:
6.46
7.68
5.40
7.19
7.25
8.00
7.26
7.17

I'm hoping you can list pIC50 for every sequence here, please.
1. LADQLIHLY [Peptide 9015.0038]
2. GTADQLIHLY [Peptide 9018.0023]
3. CQDKILEHY [Peptide 1580.23]
4. VSRRANGWFY [Peptide 9015.0179]
5. NSLVKHHMY [Peptide 9015.0033]
6. ETWETWWTDY [Peptide 9015.0169]

Given back:
1. 7.02
2. 8.70
3. 5.58
4. 8.28
5. 6.35
6. 5.06

###

biological target: A*2902 (Homo sapiens, UniProt P04439, A270S/D101N/D185E/E176V/E277Q/E87Q/F33T/G231S/H175R/I121M/I218V/I322F/K168Q/L300P/L318F/M331R/P208A/P217A/Q86L/T323A/T345S/V100A/V358M); experiment: biochemical; assay type: binding
No end group written: not given here.
metric name: pIC50
Answers are plain numbers, as −log10 of the molar value.

Would you be so kind as to report pIC50 for each listed record?
1. KSLVKHHMY [Peptide 9015.0034]
2. GTDCNGWFY [Peptide 1593.01]
3. ITKIQNFRVY [Peptide 9015.0173]
4. KSDIVTLTY [Peptide 1593.07]
5. VTFDPIPIHY [Peptide 9015.0153]

Given back:
1: 5.55; 2: 7.14; 3: 5.75; 4: 5.50; 5: 6.21

Provide pIC50 for all items below, preserving their order.
1. LMWKFDSSL [Peptide 1605.16]
2. VTIEWRLRRY [Peptide 9018.0015]
3. NSLVKHHMY [Peptide 9015.0033]

Given back:
1. 5.69
2. 6.91
3. 6.49

I would be grateful if you could provide pIC50 for each of the following entries.
1. LSDMVQWAY [Peptide 1593.03]
2. VSDEWRLRRY [Peptide 9018.0016]
3. MSDSQWIKY [Peptide 1593.05]
4. HIGPGRAFY [Peptide 1595.03]

Given back:
1: 6.30; 2: 5.59; 3: 6.08; 4: 6.80

###

target: DRB5*0101 (Homo sapiens, UniProt P01903+Q30154); assay: biochemical; conditions: Binding affinity DRB5 *0101
Assignment: determine reported IC50 for the given compounds.

Please review the entries below; each comes with its answer.
Asked: Report IC50, nothing else, for this compound: CC[C@H](C)[C@H](NC(=O)[C@H](Cc1c[nH]cn1)NC(=O)[C@H](C)NC(=O)[C@H](Cc1ccc(O)cc1)NC(=O)[C@H](CC(C)C)NC(=O)[C@@H](NC(=O)[C@H](C)NC(=O)[C@@H]1CCCN1C(=O)[C@H](CCCCN)NC(=O)[C@@H](NC(=O)[C@H](CC(C)C)NC(=O)[C@@H](NC(=O)[C@H](CCCCN)NC(=O)[C@@H](N)Cc1ccccc1)[C@@H](C)O)[C@@H](C)CC)[C@@H](C)O)C(=O)N[C@@H](CCC(N)=O)C(=O)O [Peptide 89.0082]
Given back: 2.43 µM

Asked: Determine from records and report IC50 for CC(C)[C@H](NC(=O)[C@H](CO)NC(=O)[C@@H](NC(=O)[C@@H](N)[C@@H](C)O)C(C)C)C(=O)NCC(=O)N[C@H](C(=O)N[C@@H](C)C(=O)N[C@@H](CCCCN)C(=O)N[C@H](C(=O)N[C@@H](Cc1ccc(O)cc1)C(=O)NCC(=O)N[C@@H](CCC(N)=O)C(=O)N[C@H](C(=O)N[C@@H](CO)C(=O)N[C@@H](C)C(=O)O)[C@@H](C)O)[C@@H](C)O)[C@@H](C)O [Peptide 89.0163]
Given back: > 20 µM

Asked: Complete the entry with IC50 for CC(C)C[C@H](NC(=O)[C@H](CCC(N)=O)NC(=O)[C@H](CCCCN)NC(=O)[C@@H](NC(=O)[C@H](CC(C)C)NC(=O)[C@H](CCC(N)=O)NC(=O)[C@@H](NC(=O)[C@H](C)NC(=O)[C@H](CO)NC(=O)[C@@H](NC(=O)[C@@H](NC(=O)[C@H](CC(=O)O)NC(=O)[C@@H](N)CC(=O)O)[C@@H](C)O)C(C)C)[C@@H](C)O)C(C)C)C(=O)N[C@@H](CCC(N)=O)C(=O)N[C@@H](Cc1c[nH]cn1)C(=O)O [Peptide 89.0162]
Given back: 0.578 µM

Asked: Give the value of IC50 reported for the following: CC[C@H](C)[C@H](NC(=O)CNC(=O)[C@@H](NC(=O)[C@H](CCCCN)NC(=O)[C@H](CCC(=O)O)NC(=O)[C@H](CC(N)=O)NC(=O)CNC(=O)[C@H](C)N)[C@@H](C)O)C(=O)N[C@@H](CC(C)C)C(=O)N[C@H](C(=O)N[C@H](C(=O)N[C@H](C(=O)N[C@@H](Cc1ccc(O)cc1)C(=O)N[C@@H](Cc1c[nH]cn1)C(=O)N[C@@H](CO)C(=O)O)[C@@H](C)O)C(C)C)[C@@H](C)O [Peptide 1601.18]
Given back: > 20 µM

Asked: Give the reported value of IC50 for this record: CC[C@H](C)[C@H](NC(=O)CNC(=O)[C@@H](NC(=O)[C@H](CCCCN)NC(=O)[C@H](Cc1ccc(O)cc1)NC(=O)[C@H](Cc1c[nH]c2ccccc12)NC(=O)[C@H](Cc1ccc(O)cc1)NC(=O)[C@@H](N)CC(C)C)[C@@H](C)O)C(=O)N[C@@H](CO)C(=O)N[C@@H](CC(N)=O)C(=O)N[C@H](C(=O)N[C@@H](CO)C(=O)N[C@@H](CCC(=O)O)C(=O)N[C@H](C(=O)N[C@@H](Cc1ccc(O)cc1)C(=O)O)C(C)C)[C@@H](C)CC [Peptide 89.0009]
Given back: 0.634 µM

Asked: Return IC50 for the following compound: CC[C@H](C)[C@H](NC(=O)[C@H](Cc1c[nH]c2ccccc12)NC(=O)[C@H](CCC(=O)O)NC(=O)[C@@H]1CCCN1)C(=O)N[C@@H](CCC(=O)O)C(=O)N[C@@H](CCCNC(=N)N)C(=O)N[C@@H](CCC(N)=O)C(=O)N[C@H](C(=O)N[C@H](C(=O)N[C@@H](CC(C)C)C(=O)N[C@@H](CCC(N)=O)C(=O)N[C@@H](Cc1c[nH]cn1)C(=O)N[C@@H](CO)C(=O)N[C@@H](Cc1ccccc1)C(=O)N[C@@H](CC(N)=O)C(=O)O)C(C)C)[C@@H](C)O [Peptide 89.0049]
Given back: > 20 µM

Asked: Output measured IC50 for this item: CC(C)C[C@H](NC(=O)[C@H](CCC(N)=O)NC(=O)[C@H](CCCCN)NC(=O)[C@@H](NC(=O)[C@H](CC(C)C)NC(=O)[C@H](CCC(N)=O)NC(=O)[C@@H](NC(=O)[C@H](C)NC(=O)[C@H](CO)NC(=O)[C@@H](NC(=O)[C@@H](NC(=O)[C@H](CC(=O)O)NC(=O)[C@H](CC(=O)O)NC(=O)[C@@H](N)CO)[C@@H](C)O)C(C)C)[C@@H](C)O)C(C)C)C(=O)N[C@@H](CCC(N)=O)C(=O)O [Peptide 1601.13]
Given back: > 20 µM

Asked: Indicate its recorded IC50; the compound in question is CC[C@H](C)[C@H](NC(=O)[C@H](CO)NC(=O)[C@H](CO)NC(=O)[C@H](CC(=O)O)NC(=O)[C@H](C)NC(=O)[C@H](CC(N)=O)NC(=O)[C@@H](NC(=O)[C@H](Cc1ccc(O)cc1)NC(=O)[C@H](C)NC(=O)[C@@H](NC(=O)CN)C(C)C)[C@@H](C)CC)C(=O)N[C@@H](CCC(=O)O)C(=O)NCC(=O)N[C@@H](CC(N)=O)C(=O)N[C@@H](Cc1ccc(O)cc1)C(=O)O [Peptide 68.0110]
Given back: > 20 µM

Pending compound:
Asked: Read off the recorded IC50 for CC(C)C[C@H](NC(=O)CNC(=O)[C@H](Cc1ccccc1)NC(=O)[C@H](CCC(=O)O)NC(=O)[C@H](CCCCN)NC(=O)[C@@H](N)Cc1c[nH]c2ccccc12)C(=O)N[C@@H](CC(=O)O)C(=O)N[C@@H](CO)C(=O)N[C@H](C(=O)N[C@@H](CCC(=O)O)C(=O)N[C@@H](CC(C)C)C(=O)N[C@@H](C)C(=O)N[C@@H](Cc1c[nH]cn1)C(=O)N[C@@H](Cc1ccc(O)cc1)C(=O)N[C@@H](CC(=O)O)C(=O)O)C(C)C [Peptide 68.0088]
Given back: > 20 µM

Measured values drawn from patent US9340577B2 for this set.
